system: Solanum nigrum (SOLNI); test: Pre-emergence biological efficacy, glasshouse pot test; format: in vivo; conditions: 312 h, pre-emergence, rate 1,000 g/ha, evaluated after 13 days (100=total damage to plant; 0=no damage), read-out: Percentage damage caused to weed species, SOLNI
pest or weed control at 1000 g/ha values for the molecules below.
Answer with a number only, understood to be in %.

                                smiles_text  experimental_value
0  COC(=O)c1nc(C2CC2)nc(N(Cc2ccc(C)o2)C(C)C)c1Cl                 100

Please look up its pest or weed control at 1000 g/ha: COC(=O)c1nc(C2CC2)nc(N(C)Cc2ccc(C(F)(F)F)cc2)c1Cl
20

Please look up its pest or weed control at 1000 g/ha: C=Cc1c(NCc2ccco2)nc(-c2ccc(Cl)cc2)nc1C(=O)OC
20

Please look up its pest or weed control at 1000 g/ha: CCN(Cc1ccc(F)cc1)c1nc(C2CC2)nc(C(=O)OC)c1Cl
20

Please look up its pest or weed control at 1000 g/ha: COC(=O)c1nc(C2CC2)nc(N(C)Cc2ccccc2[N+](=O)[O-])c1Cl
90

Please look up its pest or weed control at 1000 g/ha: COC(=O)c1nc(C2CC2)nc(N(C)CCc2ccccc2)c1Cl
30

Please look up its pest or weed control at 1000 g/ha: C=CCN(Cc1ccccc1F)c1nc(C2CC2)nc(C(=O)OC)c1Cl
0

Please look up its pest or weed control at 1000 g/ha: COC(=O)c1nc(-c2ccc(Cl)c(OC)c2F)nc(NCc2ccco2)c1Cl
90

----------
pest or weed control at 1000 g/ha values for the compounds below.
test system: Amaranthus retoflexus (AMARE); assay: Pre-emergence biological efficacy, glasshouse pot test; format: in vivo; conditions: Amaranthus retroflexus, 312 h; pre-emergence, 1,000 g/ha, evaluated after 13 days (100=total damage; 0=no damage); read-out: Percentage damage AMARE
Answer with a number only, understood to be in %.

Would you please look over these solved cases?
In [3]: df
Out[3]:
                                   compound                         system  experimental_value
0  COC(=O)c1nc(C2CC2)nc(NCCC2=CCCCC2)c1Cl [Compound 4-215]  Amaranthus retoflexus (AMARE)                 100
1  COC(=O)c1nc(C2CC2)nc(NCc2cccc(F)c2F)c1Cl [Compound 4-96]  Amaranthus retoflexus (AMARE)                  60
2  COC(=O)c1nc(C2CC2)nc(NC(C)COc2ccc(C#N)cc2)c1Cl (stereo not shown) [Compound 4-269]  Amaranthus retoflexus (AMARE)                  40

Please look up its pest or weed control at 1000 g/ha: COC(=O)c1nc(C2CC2)nc(NC(C)(C)c2ccccc2)c1Cl [Compound 4-189]
60

----------
system: Setaria faberi (SETFA); experiment: Post-emergence biological efficacy, glasshouse pot test; type: in vivo; conditions: 312 h, Rate 1,000 g/ha, post-emergence spray, evaluated after 13 days (100=total damage to plant; 0=no damage to plant), read-out: Percentage damage caused to weed species, post-emergence, SETFA
OBSERVED_PROPERTY: pest or weed control at 1000 g/ha (%)
Answer with a number only, understood to be in %.

Would you please look over these solved cases?
>>> print(df.to_string())
                                   molecule                  system  unit_descriptor  experimental_value
0  COC(=O)c1nc(C2CC2)nc(N(C)Cc2cccc([N+](=O)[O-])c2)c1Cl [Compound 5-91]  Setaria faberi (SETFA)                %                  40
1  COC(=O)c1nc(C2CC2)nc(N(C)Cc2ccc(Cl)c(Cl)c2)c1Cl [Compound 5-105]  Setaria faberi (SETFA)                %                  60
2  C=CCN(Cc1ccccc1)c1nc(C2CC2)nc(C(=O)OC)c1Cl [Compound 151-60]  Setaria faberi (SETFA)                %                  80
3  COC(=O)c1nc(-c2ccc(OC(F)(F)F)cc2)nc(NCc2ccco2)c1Cl [Compound 248-48]  Setaria faberi (SETFA)                %                   0

Please look up its pest or weed control at 1000 g/ha: COC(=O)c1nc(-c2ccc(C)c(C)c2)nc(NCc2ccco2)c1Cl [Compound 255-48]
0

Please look up its pest or weed control at 1000 g/ha: CCCN(Cc1ccccc1F)c1nc(C2CC2)nc(C(=O)OC)c1Cl [Compound 145-64]
40

Please look up its pest or weed control at 1000 g/ha: COC(=O)c1nc(-c2ccc(C(F)(F)F)cc2C(F)(F)F)nc(NCc2ccco2)c1Cl [Compound 234-48]
40

Please look up its pest or weed control at 1000 g/ha: COC(=O)c1nc(-c2ccc(Cl)c(OC)c2F)nc(NCC2CC2)c1Cl [Compound 112-43]
80
